biological target: HIS-PDZ3 protein (PSD-95 PDZ3, residues 309-401, with tag …) (human, UniProt P78352 309-401); assay: FP competition, fluorescent CRIPT probe
Sequence (P78352 other isoform, or with tags, fused parts or gaps limits assumed): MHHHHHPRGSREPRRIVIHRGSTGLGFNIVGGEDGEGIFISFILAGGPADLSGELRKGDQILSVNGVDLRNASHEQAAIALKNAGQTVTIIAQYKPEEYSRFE
Ends that are not written are not given here. * marks the point of attachment. (naphthalen-2-yl)ethyl = c1ccc2cc(CC*)ccc2c1; Cyclohexylmethyl = C1CCC(C*)CC1; cyclohexylethyl = C1CCC(CC*)CC1; Bn = c1ccc(C*)cc1
Listed binders paired with reported pKi
Please express pKi as -log10 of the molar concentration.

Before answering, review these 4 worked examples.
{"columns": ["binder", "pKi"],
 "data": [
  ["ETAV (not fully specified, The printed formula C25H37Cl2N4O8 and the comparison with 59 point to an ethyl spacer, the printed name says propyl) [N-(3,4-Dichlorophenyl)propyl-ETAV (61)]", 5.17],
  ["Et-ETAV [N-Ethyl-ETAV (52)]", 4.16],
  ["Bn-ETAV [N-Benzyl-ETAV (58)]", 4.20],
  ["{(naphthalen-2-yl)ethyl}-ETAV [N-(Naphtalene-2-yl)ethyl-ETAV (63)]", 5.00]
]}

**Query** I would be grateful if you could share the reported pKi for cyclohexylethyl-ETAV [N-Cyclohexylethyl-ETAV (56)] .
**Result** 4.96

**Query** I would be grateful if you could share the reported pKi for ETAV (not fully specified, The printed formula C25H37F2N4O8 points to an ethyl spacer, the printed name says propyl) [N-(3,4-Difluorophenyl)propyl-ETAV (62)] .
**Result** 5.11

**Query** I would be grateful if you could share the reported pKi for ETAV [ETAV (51)] .
**Result** 3.59

**Query** I would be grateful if you could share the reported pKi for Cyclohexylmethyl-ETAV [N-Cyclohexylmethyl-ETAV (55)] .
**Result** 4.68
